Data origin: PubChem BioAssay (NCI)

- Tested on: SNB-78 CNS
- Test Name: NCI tumour cell line growth inhibition, 48 h
Recorded TGI by entry

>  <Compound>
N#Cc1ccc(/C=N\N2C(=O)c3ccccc3C2=O)cc1

>  <TGI>
> 100 µM

$$$$
>  <Compound>
C=C1C(=O)OC2C[C@H](C)C3CC(=O)C(C)=C3CC12 (some centres not stated)

>  <TGI>
44.1 µM

$$$$
>  <Compound>
COc1c(OC(C)=O)c(OC(C)=O)cc2c1-c1ccc(OC)c(=O)cc1C(NC(C)=O)CC2 (configuration not stated)

>  <TGI>
> 100 µM

$$$$

Query: Form field: reported TGI of CC(C)=CCC/C(C)=C/CC/C(C)=C/CC/C=C(\C)CC/C=C(\C)CCC1SC1(C)C (configuration not stated)
Reply: > 100 µM

Query: Form field: reported TGI of `Cn1c(=O)nc2n(-c3ccc(F)cc3)c3ccccc3nc-2c1=O`
Reply: 42.2 µM

Query: Form field: reported TGI of Cc1cc2c(cc1C)N1Cc3c(ccc(C)c3C)N(C2)C1 (tested in a mixture with another compound)
Reply: > 100 µM

Query: Form field: reported TGI of `COC(=O)CSc1ccccc1`
Reply: > 100 µM

* * *

- Test system: NCI-H23 lung
- Test Name: NCI tumour cell line growth inhibition, 48 h
Assay Endpoint: TGI

Some solved entries appear below for comparison.
>  <Compound>
NC(=O)Cc1ncn(-c2ccccc2)n1

>  <TGI>
> 100 µM

$$$$
>  <Compound>
Cc1cccc2nc3n(c12)C(=O)c1ccccc1-3

>  <TGI>
> 100 µM

$$$$
>  <Compound>
O=C(CCc1nnc2s/c(=C\c3ccc4c(c3)OCO4)c(=O)n12)Nc1cc(Cl)ccc1Cl

>  <TGI>
> 100 µM

$$$$
>  <Compound>
O=C(O)Cn1nnc2c(=O)[nH][nH]c(=O)c21

>  <TGI>
> 100 µM

$$$$
>  <Compound>
CC(=O)Oc1ccc2ccc(=O)oc2c1OC(C)=O

>  <TGI>
> 100 µM

$$$$

Switching to the query record.
Query: Form field: reported TGI of CC1(C)CC(=O)C(CC(C(=O)C(=O)Nc2cc(C(F)(F)F)ccc2Cl)C(=O)c2ccco2)C(=O)C1 (stereo unspecified)
Reply: > 100 µM

* * *

- Test system: SK-MEL-5 melanoma
- Test Name: NCI tumour cell line growth inhibition, 48 h
Assay Endpoint: TGI

Query: Form field: reported TGI of `CCOC(=O)c1c[nH]c2c(OCc3ccccc3)c3ccccc3c(O)c2c1=O`
Reply: 7.52 µM

Query: Form field: reported TGI of `COc1ccc2c(C)cc(N/N=C/c3sccc3C)nc2c1`
Reply: 18.9 µM

Query: Form field: reported TGI of Cc1cc2c(cc1C)N1Cc3c(ccc(C)c3C)N(C2)C1 (tested in a mixture with another compound)
Reply: > 100 µM

Query: Form field: reported TGI of CC1(C)N(OC2CCCCO2)C(c2ccccc2)C(c2ccccc2)=[N+]1[O-] (configuration not stated)
Reply: > 100 µM

Query: Form field: reported TGI of CC1=NN(C(=O)CC(=O)Nc2ccccc2C)C(=O)C1N=Nc1ccc(S(=O)(=O)c2ccc(N=NC3C(=O)N(C(=O)CC(=O)Nc4ccccc4C)N=C3C)cc2)cc1 (configuration not stated)
Reply: > 100 µM

Query: Form field: reported TGI of `CC(C)(C)c1ccc(-c2nc3ccccc3c(=O)o2)cc1`
Reply: 38.2 µM

Query: Form field: reported TGI of C[C@]12CCC3[C@@H](C[C@H]4OC(=O)[C@@]35CCC(=O)C=C45)C1CCC2=O (some centres not stated)
Reply: > 100 µM

* * *

- Tested on: UO-31 renal
- Test Name: NCI tumour cell line growth inhibition, 48 h
Assay Endpoint: TGI (µM)
// note: answer is a bare numeric in µM

Query: Form field: reported TGI of `O=C(Cn1c(C(=O)/C=C/c2ccco2)nc2ccccc21)c1ccc(Cl)cc1`
Reply: 94.3

Query: Form field: reported TGI of `CN(C)c1ccc(/C=C/C(=O)c2ccccc2)cc1Br`
Reply: 33.3

Query: Form field: reported TGI of `COc1ccc2nc3cccc([N+](=O)[O-])c3c(NCCN(CCO)CCO)c2c1`
Reply: 0.184

Query: Form field: reported TGI of `Cc1ccc(Cl)cc1Nc1nc(C(F)(F)F)ccc1C(=O)N/N=C/c1c(Cl)cccc1Cl`
Reply: 5.13

* * *

Recorded TGI by entry
- System: RPMI-8226 leukemia
- Test Name: NCI tumour cell line growth inhibition, 48 h

Some solved entries appear below for comparison.
>  <Molecule>
CCOCCc1c(O)nc(SC)[nH]c1=O

>  <TGI>
> 100 µM

$$$$
>  <Molecule>
COc1cc(COC(=O)N2CCCCC2C(=O)O)c([N+](=O)[O-])cc1OC (stereo not given)

>  <TGI>
> 100 µM

$$$$
>  <Molecule>
OC(c1ccsc1)c1cc2ccccc2s1 (stereo not given)

>  <TGI>
> 10 µM

$$$$

Query: Form field: reported TGI of `COc1ccc(/C=C/C(=O)c2nc3ccccc3[nH]2)cc1`
Reply: > 29.8 µM

Query: Form field: reported TGI of `NC(=O)c1nnn(Cc2cc(Cl)c(C(=O)c3ccc(Cl)cc3)c(Cl)c2)c1N`
Reply: > 70.6 µM

Query: Form field: reported TGI of NC(=O)NC(CC(=O)O)C(=O)O (stereo not given)
Reply: > 100 µM

Query: Form field: reported TGI of `O=C(N1CCOCC1)C1(c2ccccc2)CCNCC1`
Reply: > 100 µM

Query: Form field: reported TGI of CCN(CC)CCCC(C)NC(=O)c1cc(-c2nccn2C)nc2ccc(C)cc12 (stereo not given)
Reply: > 100 µM

Query: Form field: reported TGI of `CCOc1cc(C=O)c2c(ccc3ccc(OC)c(OC)c32)c1OC`
Reply: > 100 µM

* * *

Recorded TGI by entry
- Test system: EKVX NSCLC
- Test Name: NCI tumour cell line growth inhibition, 48 h

Some solved entries appear below for comparison.
>  <Molecule>
Cc1ccccc1N=Cc1ccc(N(CCC#N)S(=O)(=O)c2ccccc2)cc1

>  <TGI>
> 100 µM

$$$$
>  <Molecule>
CC1C(=O)C(C)C(c2cccs2)N(N=O)C1c1cccs1 (stereo not drawn)

>  <TGI>
> 100 µM

$$$$

Switching to the query record.
Query: Give recorded TGI with EKVX NSCLC for the following molecule: CC1(C)CC(=O)C(CC(C(=O)C(=O)Nc2cc(C(F)(F)F)ccc2Cl)C(=O)c2ccco2)C(=O)C1 (stereo not drawn)
Reply: > 100 µM

* * *

- Tested on: HL-60(TB) leukemia
- Test Name: NCI tumour cell line growth inhibition, 48 h
Recorded TGI by entry

>  <Compound>
CC(=O)c1c2c(cc3c1CC1(Cc4cc5c(cc4C1=O)CCC5)C3)CCC2 (stereo not drawn)

>  <Assay Endpoint>
TGI

>  <Value>
> 59.4 µM

$$$$
>  <Compound>
[N-]=[N+]=Nc1ccccc1-[n+]1noc([O-])c1Br

>  <Assay Endpoint>
TGI

>  <Value>
> 100 µM

$$$$
>  <Compound>
C[C@]12CCC3[C@@H](C[C@H]4OC(=O)[C@@]35CCC(=O)C=C45)C1CCC2=O (stereo partly drawn)

>  <Assay Endpoint>
TGI

>  <Value>
> 100 µM

$$$$
>  <Compound>
CCOC(=O)N1CC2(C(=O)OC)C=CC1C(C(=O)OC)C2 (stereo not drawn)

>  <Assay Endpoint>
TGI

>  <Value>
> 100 µM

$$$$
>  <Compound>
COC(=O)c1cc(C)n2c1CS[C@@H]2c1ccccc1

>  <Assay Endpoint>
TGI

>  <Value>
> 100 µM

$$$$
>  <Compound>
COc1ccc(C2=NN(C(=O)c3ccccc3)C(O)(c3cc(F)c(Cl)cc3Cl)C2)cc1OC (stereo not drawn)

>  <Assay Endpoint>
TGI

>  <Value>
> 100 µM

$$$$

Switching to the query record.
Query: Form field: reported TGI of `SC[C@@H]1COC[C@H](CS)S1`
Reply: > 100 µM

* * *

- System: MCF7 breast
- Test Name: NCI tumour cell line growth inhibition, 48 h
Assay Endpoint: TGI

>  <Compound>
O=C(/C=C/C=C/c1ccccc1)c1ccc(Nc2nc(Nc3ccccc3)nc(Nc3ccccc3)n2)cc1

>  <Assay Endpoint>
TGI

>  <Value>
> 100 µM

$$$$
>  <Compound>
Cc1nc2c(O)cccc2c(=O)[nH]1

>  <Assay Endpoint>
TGI

>  <Value>
> 1000 µM

$$$$
>  <Compound>
CC(=O)Nc1ccc2c3c(cc(O)c2c1)N(C(=O)CCCC(=O)Nc1ccc2c4c(cc(O)c2c1)N(C(=O)OC(C)(C)C)CC4CCl)CC3CCl (stereo not given)

>  <Assay Endpoint>
TGI

>  <Value>
> 16.3 µM

$$$$
>  <Compound>
COc1ccc(-c2nc(N)c(C#N)c3c2CCSc2ccc(C)cc2-3)cc1OC

>  <Assay Endpoint>
TGI

>  <Value>
63.5 µM

$$$$
>  <Compound>
CCN(CC)CCCC(C)NC(=O)c1cc(-c2nccn2C)nc2ccc(C)cc12 (stereo not given)

>  <Assay Endpoint>
TGI

>  <Value>
> 100 µM

$$$$
>  <Compound>
COc1cc(C2SCC(=O)N2c2ccc(-c3ccc(-n4c(-c5ccccc5)nc5ccccc5c4=O)cc3)cc2)ccc1O (stereo not given)

>  <Assay Endpoint>
TGI

>  <Value>
> 100 µM

$$$$
>  <Compound>
Nc1ncnc2c1ncn2[C@@H]1C[C@H]1CO

>  <Assay Endpoint>
TGI

>  <Value>
> 100 µM

$$$$
>  <Compound>
CCCCCCCCCCCC1=NC(C)(C)CN1CCO

>  <Assay Endpoint>
TGI

>  <Value>
6.09 µM

$$$$
>  <Compound>
CC1(C)CC(=O)C2=C(C1)NC(SSC1=C(C#N)C(c3ccc(Br)cc3)C3=C(CC(C)(C)CC3=O)N1)=C(C#N)C2c1ccc(Br)cc1 (stereo not given)

>  <Assay Endpoint>
TGI

>  <Value>
150 µg/mL

$$$$
>  <Compound>
OCCOCCN1CCN(c2nc(N3CCCC3)c3nc(Cl)c(NCc4ccccc4)nc3n2)CC1

>  <Assay Endpoint>
TGI

>  <Value>
29.5 µM

$$$$

Switching to the query record.
Query: Form field: reported TGI of CSC(=NC1CC(n2cc(C)c(=O)[nH]c2=O)OC1CO)NC#N (stereo not given)
Reply: > 100 µM
